Endpoint label: melting point

Sample records with melting point:
- Compound: "CCc1nc2c(cnn2CC)c(NC2CCOCC2)c1CNC(=O)c1cccc(C(=O)NCc2ccc(OC)c(-c3cccc(CN4CC5CC4CN5)c3)c2)c1 (centres undefined)"
  melting point: "129 to 131 °C"
- Compound: "COC(=O)c1ccc(Cc2c(Cl)n(C)c3ccc(CC(C)NC(=O)N(C)C)cc23)c(OC)c1 (centres undefined)"
  melting point: "148 °C"

Provide measured melting point value, entry: CCc1c(-c2cc(C)c(OC)c(C)c2)[nH]c2ccccc12
126 to 127 °C

Tell us which melting point value is on record for COc1ccc(CN(CCN(C)CCCNC(=O)NCCSCc2csc(NC(=N)N)n2)c2ccccn2)cc1
106 to 109 °C
